measured-target: T1, rat collagen (acid soluble, type I, rat tail, Millipore Inc, cat#08-115) (rat, UniProt P02454 152-1207; P02466 86-1125)
T1 construct: In the assay the collagen was gelled and dried as a fibril film in microtiter wells; also called rat collagen type I
T1 sequence (P02454 152-1207 limits assumed, chain 1 of 2): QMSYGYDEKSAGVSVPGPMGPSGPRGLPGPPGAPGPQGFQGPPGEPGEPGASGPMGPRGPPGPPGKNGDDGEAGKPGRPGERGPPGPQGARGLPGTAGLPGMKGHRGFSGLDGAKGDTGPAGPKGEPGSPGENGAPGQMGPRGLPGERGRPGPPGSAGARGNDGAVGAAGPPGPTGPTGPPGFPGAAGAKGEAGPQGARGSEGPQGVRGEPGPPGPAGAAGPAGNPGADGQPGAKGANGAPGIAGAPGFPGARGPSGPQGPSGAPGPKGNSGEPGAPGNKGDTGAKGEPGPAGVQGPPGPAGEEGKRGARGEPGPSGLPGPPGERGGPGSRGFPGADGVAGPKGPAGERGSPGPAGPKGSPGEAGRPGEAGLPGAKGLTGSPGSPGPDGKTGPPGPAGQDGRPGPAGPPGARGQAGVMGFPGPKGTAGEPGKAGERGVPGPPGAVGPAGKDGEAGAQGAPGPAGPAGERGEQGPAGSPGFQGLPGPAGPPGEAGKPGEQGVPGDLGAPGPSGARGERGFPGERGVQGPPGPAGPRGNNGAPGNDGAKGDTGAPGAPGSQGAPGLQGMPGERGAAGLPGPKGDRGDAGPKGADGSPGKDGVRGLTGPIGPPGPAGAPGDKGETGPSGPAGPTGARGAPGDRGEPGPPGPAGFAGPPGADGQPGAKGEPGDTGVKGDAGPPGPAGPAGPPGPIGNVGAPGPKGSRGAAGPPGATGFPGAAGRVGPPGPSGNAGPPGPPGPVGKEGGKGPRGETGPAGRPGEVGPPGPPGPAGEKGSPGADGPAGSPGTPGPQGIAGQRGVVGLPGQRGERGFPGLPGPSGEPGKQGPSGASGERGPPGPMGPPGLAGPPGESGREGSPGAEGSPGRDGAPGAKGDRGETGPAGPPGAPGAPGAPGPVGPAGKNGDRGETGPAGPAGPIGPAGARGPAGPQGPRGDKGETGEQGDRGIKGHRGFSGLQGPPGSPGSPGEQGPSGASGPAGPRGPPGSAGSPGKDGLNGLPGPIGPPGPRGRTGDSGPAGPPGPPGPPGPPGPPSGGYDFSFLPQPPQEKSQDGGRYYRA
T1 sequence (P02466 86-1125 limits assumed, chain 2 of 2): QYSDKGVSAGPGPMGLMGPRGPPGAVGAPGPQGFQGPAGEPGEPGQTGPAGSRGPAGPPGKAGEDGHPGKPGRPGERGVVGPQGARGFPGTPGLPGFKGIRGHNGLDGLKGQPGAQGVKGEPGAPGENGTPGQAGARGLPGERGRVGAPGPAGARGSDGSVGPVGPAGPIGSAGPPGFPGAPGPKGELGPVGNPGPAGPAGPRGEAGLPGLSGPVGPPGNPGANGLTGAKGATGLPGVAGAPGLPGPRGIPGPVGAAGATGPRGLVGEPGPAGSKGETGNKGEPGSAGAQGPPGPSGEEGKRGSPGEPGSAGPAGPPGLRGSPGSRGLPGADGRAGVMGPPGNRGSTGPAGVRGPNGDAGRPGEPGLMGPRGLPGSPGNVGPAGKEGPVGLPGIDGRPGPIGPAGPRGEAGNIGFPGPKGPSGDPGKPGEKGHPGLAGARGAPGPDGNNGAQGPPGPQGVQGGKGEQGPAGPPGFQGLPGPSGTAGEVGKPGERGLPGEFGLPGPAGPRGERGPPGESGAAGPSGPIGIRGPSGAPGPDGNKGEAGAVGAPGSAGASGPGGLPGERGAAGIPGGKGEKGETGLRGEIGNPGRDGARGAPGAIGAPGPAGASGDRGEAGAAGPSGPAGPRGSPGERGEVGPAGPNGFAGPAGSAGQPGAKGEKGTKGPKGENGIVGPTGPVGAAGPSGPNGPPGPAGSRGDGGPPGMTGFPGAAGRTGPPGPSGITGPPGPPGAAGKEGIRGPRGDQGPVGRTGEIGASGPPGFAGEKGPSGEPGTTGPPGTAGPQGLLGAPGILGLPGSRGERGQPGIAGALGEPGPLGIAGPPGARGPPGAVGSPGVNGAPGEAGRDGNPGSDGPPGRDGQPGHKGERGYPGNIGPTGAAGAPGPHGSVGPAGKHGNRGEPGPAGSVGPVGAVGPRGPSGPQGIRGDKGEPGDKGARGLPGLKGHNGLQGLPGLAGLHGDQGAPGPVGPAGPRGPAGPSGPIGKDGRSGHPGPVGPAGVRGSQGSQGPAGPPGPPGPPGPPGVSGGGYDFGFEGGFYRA
assay-summary: dried collagen film in microtiter plate; unbound compound by ICP-MS (Gd); fit to 1 binding site
Bridge positions count the residues as written; N and C are the ends. Square brackets hold non-standard residues; d marks the D form. Ends that are not written are not given here. GdDOTAGA = Gd(III)-DOTAGA chelate, amide-linked; Bip = N[C@@H](Cc1ccc(-c2ccccc2)cc1)C(=O)O
Kd reference
Respond numerically; units are µM and should not be typed.

q: Specify Kd for GdDOTAGA-K(GdDOTAGA)WHCTTK(GdDOTAGA)FPHHYCLY[Bip]-NH2 (disulfide 4-13, Tested as the Gd(III)-DOTAGA chelate conjugate of the cyclic peptide; also called CMPD ID 2) [Compound ID No. 2] and stop.
a: 20.6

q: Supply measured Kd of KWHCYTKFPHHYCVY[Bip]-NH2 (disulfide 4-13; not fully specified (residues 1, 7, N-terminus); printed as K-W-H-C-Y-T-K-F-P-H-H-Y-C-V-Y-Bip; also: GdDOTAGA on N-terminal amine or lysine epsilon amino groups, Tested as the Gd(III)-DOTAGA chelate conjugate of the cyclic peptide; also called CMPD ID 4) [Compound ID No. 4] in your reply.
a: 4.6

q: Find the measured Kd of GKWHCTTKFPHHYCLY (Bip (L-4,4'-biphenylalanine) at position 17; C-terminal amide (NH2); cyclized through Cysteine-Cysteine disulfide bond (Cys5-Cys14); GdDOTAGA coupled by amide bonds to the primary amines (N-terminal amine and lysine epsilon amino groups), Tested as the Gd(III)-DOTAGA chelate conjugate of the cyclic peptide; also called CMPD ID 1; Comp ID No. 1) [Compound ID No. 1] and report it.
a: 21.1

Hello, the source for this data is patent US20160375155A1, in case you need it.
